Reference source: PubChem BioAssay AID1159580

Quick reference: normalized growth of the listed items.
experiment: chemical genetic growth profiling, strain panel (AID 1159580);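 also: tested at 20 µM; growth read once vehicle control cultures reached saturation at 30 °C; 1 = growth at the plate median or of vehicle wells; lower values mean less growth of the strain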; details: S. cerevisiae deletion strains, growth OD, locus YJR043C, strain POL32, stronger effect = lower value
About 2,000 (36%) of roughly 5,500 compounds were called active. Roughly 18% stayed inconclusive and do not appear here. This is one part of the list.
Would you mind answering with just the numeric figure?

// query normalized growth value for entry O=C(O)CCC1NCC2CC1CN1CCCCC21 (configuration not stated)
1.03

###

assay: chemical genetic growth profiling, strain panel (AID 1159580); conditions: S. cerevisiae deletion strains, growth OD, locus YBR171W, strain sec66
Out of some 5,500 compounds screened, about 2,000 (36%) were called active. Not shown: some 18% with an inconclusive outcome. Cut-off read from the data, not from the text of the source: active = normalized growth mostly below about 0.91 (no sharp cut-off); inconclusive = no clear call, values can overlap the other calls; inactive = mostly above about 0.92. Some of the results follow.
Answer with one of the outcomes label 1 for active, label 0 for inactive

Take a look at these entries with their results.
Molecule | Assigned Label
CC(=O)O[C@]1(C)CC[C@@]23CC1C(C)(C)[C@@H]2CC[C@H]3C | label 0
COC[C@]12CN(C=O)C3[C@@H]4[C@H](OC)C1[C@]3(C1CC3(O)C(OC)C(O)C4(OC(C)=O)C1C3OC(=O)c1ccccc1)[C@@H](OC)C[C@H]2O (some centres undefined) | label 0
Cc1cc(CC(=O)O)n(C)c1C(=O)c1ccc(Cl)cc1 | label 0
Clc1ccc(CSC(Cn2ccnc2)c2ccc(Cl)cc2Cl)cc1 (centres undefined) | label 1
C[C@@H]1CC[C@H]2C(C)(C)C3CC12CC[C@@]3(C)O (some centres undefined) | label 0
Clc1ccc(COC(Cn2ccnc2)c2ccc(Cl)cc2Cl)c(Cl)c1 (centres undefined) | label 1

Please state the recorded outcome for this molecule: CC(=O)O[C@@H]1CC2C(C)(C)[C@H](O)CC[C@]2(C)C2CC[C@@]3(C)[C@H](c4ccoc4)OC(=O)C4OC43[C@@]21C (some centres undefined)
label 0

Please state the recorded outcome for this molecule: Clc1ccc(CO/N=C(/Cn2ccnc2)c2ccc(Cl)cc2Cl)c(Cl)c1
label 1

Please state the recorded outcome for this molecule: Clc1ccc(COC(Cn2ccnc2)c2ccc(Cl)cc2Cl)cc1 (centres undefined)
label 1

###

experiment: chemical genetic growth profiling, strain panel (AID 1159580); settings: S. cerevisiae deletion strains, growth OD, locus YPL106C, strain sse1, stronger effect = lower value
Hit rate of the full screen: of about 5,500 compounds, about 2,000 (36%) were called active. Roughly 18% stayed inconclusive and do not appear here. This is one part of the list.
Quick reference: normalized growth of the listed items.

Compound | normalized growth
CC(C)/C(O)=C1/C(=O)O[C@@H](c2ccoc2)[C@]2(C)C(O)[C@@H](O)[C@@]34OC5(C)OC67CC(C)(C(O)[C@]6(O)[C@@H](O)[C@]3(O5)C12)[C@H](CC(=O)O)[C@]74C (some centres undefined) | 0.976 (inactive)
C=NC(C(=O)NC1C(=O)N2C1SC(C)(C)C2C(=O)O)c1ccccc1 (centres undefined) | 0.983 (inactive)
CC(=O)C1CCC2C3CCC4C[C@H](O)CCC4(C)C3C[C@H](O)C12C (some centres undefined) | 0.964 (inactive)
COc1ccc(-c2oc3cc(OC)c(OC)c(OC)c3c(=O)c2OC)cc1OC | 0.969 (inactive)
CC[C@@H]1OC(=O)C[C@@H](O)[C@H](C)[C@@H](O[C@@H]2O[C@H](C)[C@@H](O)[C@H](N(C)C)[C@H]2O)[C@@H](CCN2C[C@H](C)C[C@H](C)C2)C[C@@H](C)C(=O)/C=C/C(C)=C\[C@@H]1CO[C@@H]1O[C@H](C)[C@@H](O)[C@@H](OC)[C@H]1OC | 0.963 (inactive)
Cc1ccc(C(=O)c2ccc(CC(=O)O)n2C)cc1 | 1.03 (inactive)

// query normalized growth value for entry CN(C/C=C/C#CC(C)(C)C)Cc1cccc2ccccc12
0.444 (active)

// query normalized growth value for entry C[C@H]1C[C@@H](O)[C@]2(O)[C@@]13CC(=O)OC[C@@]2(C)[C@](C)(O)C(=O)C3
1.02 (inactive)

// query normalized growth value for entry O=C(O)[C@@H](S)[C@@H](S)C(=O)O
0.931 (inactive)

// query normalized growth value for entry c1ccc2c(CC3=NCCN3)cccc2c1
0.968 (inactive)

// query normalized growth value for entry COc1ccc2c(c1)OCC(Cc1ccc(OC)c(OC)c1)C2=O (centres undefined)
0.94 (inactive)

// query normalized growth value for entry O=C1CCCN1CC#CCN1CCCC1
1.02 (inactive)

###

Quick reference: normalized growth of the listed items.
test: chemical genetic growth profiling, strain panel (AID 1159580);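 also: tested at 20 µM; growth read once vehicle control cultures reached saturation at 30 °C; 1 = growth at the plate median or of vehicle wells; lower values mean less growth of the strain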; settings: S. cerevisiae deletion strains, growth OD, locus YLR058C, strain SHM2, stronger effect = lower value
Screen size: about 5,500 compounds; about 2,000 (36%) were called active. Inconclusive results (about 18%) are left out. Some of the results follow.
Would you mind answering with just the numeric figure?

// query normalized growth value for entry NC(N)=NCCN1CCCCCCC1
1.01

// query normalized growth value for entry CC(=O)C1CCC2C3CCC4C[C@H](O)CCC4(C)C3C[C@H](O)C12C (stereo partly specified)
1.05

// query normalized growth value for entry Clc1ccc(CSC(Cn2ccnc2)c2ccc(Cl)cc2Cl)cc1 (stereo unspecified)
0.0452

// query normalized growth value for entry Clc1ccc(COC(Cn2ccnc2)c2ccc(Cl)cc2Cl)cc1 (stereo unspecified)
0.0475

// query normalized growth value for entry CC(=O)C1CC[C@H]2C3CC[C@H]4C[C@H](O)CC[C@]4(C)C3CC[C@]12C (stereo partly specified)
0.991

// query normalized growth value for entry Cc1onc(-c2ccccc2)c1-c1ccc(S(N)(=O)=O)cc1
1.01

###

assay: chemical genetic growth profiling, strain panel (AID 1159580);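 also: tested at 20 µM; growth read once vehicle control cultures reached saturation at 30 °C; 1 = growth at the plate median or of vehicle wells; lower values mean less growth of the strain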; conditions: S. cerevisiae deletion strains, growth OD, locus YMR263W, strain SAP30, stronger effect = lower value
About 2,000 (36%) of roughly 5,500 compounds were called active. Not shown: some 18% with an inconclusive outcome. The list shows a part of the results.
Assay Readout: normalized growth
Would you mind answering with just the numeric figure?

Molecule | normalized growth
N#Cc1cccc(CSC2=NCN(C3CC3)CN2)c1 | 0.952
O=C(O)/C=C/C(O)c1ccc(Cl)cc1 (stereo unspecified) | 0.983
CCCN(CCC)C1Cc2cc(OC)c(OC)cc2C1 | 0.985
CC(=O)c1ccc(N2C(=O)CSCC2=O)cc1 | 0.999
NC1(C(=O)O)CCCCC1 | 0.995
CN[C@@H]1C(OC2[C@H](O[C@H]3[C@H](O)[C@@H](O)[C@H](N=C(N)N)[C@@H](O)[C@@H]3N=C(N)N)OC(C)[C@]2(O)CO)OC(CO)C(O)C1O (stereo partly specified) | 0.979

// query normalized growth value for entry FC(F)(F)Oc1ccccc1-c1nnc(-c2ccc(Cl)cc2)o1
0.948

// query normalized growth value for entry O=C1c2ccccc2C2(c3ccccc3)NCCN12 (stereo unspecified)
1.01

// query normalized growth value for entry CNc1ccc(C(=O)CC(O)CCC(C)C2OC(=O)CC(O)CC(=O)CC(O)CC(O)CC(O)CC(O)CC3(O)CC(O)C(C(=O)OC)C(CC(OC4OC(C)C(O)C(N)C4O)/C=C/C=C/C=C/C=C/C=C/C=C/C=C/C2C)O3)cc1 (stereo unspecified)
0.0638

// query normalized growth value for entry CCCc1c(-c2ccc(O)cc2)nn(-c2ccc(O)cc2)c1-c1ccc(O)cc1
0.995

// query normalized growth value for entry OC[C@H]1O[C@@H](n2cnc3c(NCc4ccco4)ncnc32)[C@H](O)[C@@H]1O
1.02

// query normalized growth value for entry c1ccc2c(CC3=NCCN3)cccc2c1
1

// query normalized growth value for entry COC(=O)/C(C)=C\CC12OC(C)(C)C3CC(C=C4C(=O)c5c(OC)c6c(c(CC=C(C)C)c5OC431)OC(C)(CCC=C(C)C)C=C6)C2=O (stereo unspecified)
1

// query normalized growth value for entry Cc1cccc(C)c1NC(=O)C1CCCCN1C (stereo unspecified)
0.997

###

test: chemical genetic growth profiling, strain panel (AID 1159580);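 also: tested at 20 µM; growth read once vehicle control cultures reached saturation at 30 °C; 1 = growth at the plate median or of vehicle wells; lower values mean less growth of the strain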; details: S. cerevisiae deletion strains, growth OD, locus YPL078C, strain atp4
In all, about 5,500 compounds went through this assay and about 2,000 (36%) were called active. Another 18% or so got no clear call; they are omitted. Rule as the data show it: active = normalized growth mostly below about 0.91 (no sharp cut-off); inconclusive = no clear call, values can overlap the other calls; inactive = mostly above about 0.92. The list shows a part of the results.
Answer with one of the outcomes active, inactive

Take a look at these entries with their results.
Molecule | Assigned Label
O=C(O)CCC1NCC2CC1CN1CCCCC21 (stereo not given) | inactive
COC(=O)[C@@H]1OC(=O)C2OC23[C@@]1(C)CCC1[C@]2(C)C(C[C@@H](O)[C@]13C)C(C)(C)[C@H](OC(C)=O)C[C@@H]2OC(C)=O (stereo not given in full) | inactive
Oc1c(Cl)cc(Cl)c(Cl)c1Cc1c(O)c(Cl)cc(Cl)c1Cl | active
O=C(O)COc1ccc(Cl)cc1Cl | inactive
CC(=O)O[C@H]1C[C@@H](OC(C)=O)C(C)(C)C2C[C@@H](OC(C)=O)[C@]3(C)C(CC[C@@]4(C)[C@H](c5ccoc5)OC(=O)[C@H]5O[C@]543)[C@]21C (stereo not given in full) | inactive

Please state the recorded outcome for this molecule: Clc1ccccc1CN1CCc2sccc2C1
inactive

Please state the recorded outcome for this molecule: CCCCC(=O)O[C@]1(C(=O)CO)CCC2C3CCC4=CC(=O)CC[C@]4(C)C3[C@@H](O)C[C@@]21C (stereo not given in full)
inactive

Please state the recorded outcome for this molecule: O=c1cccc2n1CC1CC2CN2CCCC[C@@H]12 (stereo not given in full)
inactive

Please state the recorded outcome for this molecule: C=CCS(=O)C[C@H](N)C(=O)O (stereo not given in full)
inactive

Please state the recorded outcome for this molecule: CC(=O)O[C@@H]1CC2C(C)(C)C(=O)C3OC3[C@]2(C)C2CC[C@@]3(C)[C@H](c4ccoc4)OC(=O)C4OC43[C@@]21C (stereo not given in full)
inactive
